- system.tested: Norepinephrine transporter NET (Homo sapiens, UniProt P23975)
- Construct: host or cells: MDCK
- Sequence (P23975 whole entry): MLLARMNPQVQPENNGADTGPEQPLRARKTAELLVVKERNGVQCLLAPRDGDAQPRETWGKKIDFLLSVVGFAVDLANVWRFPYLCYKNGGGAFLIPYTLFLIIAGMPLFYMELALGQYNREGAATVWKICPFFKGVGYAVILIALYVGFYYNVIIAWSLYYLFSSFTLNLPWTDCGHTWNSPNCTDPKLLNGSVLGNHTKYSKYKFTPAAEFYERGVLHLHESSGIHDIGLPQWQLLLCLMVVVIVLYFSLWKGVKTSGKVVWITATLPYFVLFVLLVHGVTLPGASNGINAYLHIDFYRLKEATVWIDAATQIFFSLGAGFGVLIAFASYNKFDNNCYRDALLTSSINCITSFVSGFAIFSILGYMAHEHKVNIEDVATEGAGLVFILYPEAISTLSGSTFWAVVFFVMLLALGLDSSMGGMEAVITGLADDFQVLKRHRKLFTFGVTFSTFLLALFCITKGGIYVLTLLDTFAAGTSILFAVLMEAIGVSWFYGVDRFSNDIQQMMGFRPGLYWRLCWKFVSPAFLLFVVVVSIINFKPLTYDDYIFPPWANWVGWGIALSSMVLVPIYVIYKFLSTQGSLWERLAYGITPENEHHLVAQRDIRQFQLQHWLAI
- assay.name: Radioligand displacement binding assay, [125I]RTI-55, NET
- test.conditions: 1 μM
recorded.endpoint: inhibition at 1 µM (%)
Answers are plain numbers, in %.

compound	value
CC[C@@H](O)C(C[C@@H](C)N)(c1ccccc1)c1ccccc1	4
CCC(=O)C(C[C@H](C)N(C)C)(c1ccccc1)c1ccccc1 [(S)-methadone, reference compound]	5
CC[C@H](O)C(C[C@@H](C)NC)(c1ccccc1)c1ccccc1	4

--- query ---
Could you tell me which inhibition at 1 µM is on file for CCC1=N[C@H](C)CC1(c1ccccc1)c1ccccc1 [(R)-EMDP] ?
-5

----------
- system.tested: Serotonin 5-HT7 (Homo sapiens, UniProt P34969)
- Construct: host or cells: CHO-K1
- Sequence (P34969 whole entry): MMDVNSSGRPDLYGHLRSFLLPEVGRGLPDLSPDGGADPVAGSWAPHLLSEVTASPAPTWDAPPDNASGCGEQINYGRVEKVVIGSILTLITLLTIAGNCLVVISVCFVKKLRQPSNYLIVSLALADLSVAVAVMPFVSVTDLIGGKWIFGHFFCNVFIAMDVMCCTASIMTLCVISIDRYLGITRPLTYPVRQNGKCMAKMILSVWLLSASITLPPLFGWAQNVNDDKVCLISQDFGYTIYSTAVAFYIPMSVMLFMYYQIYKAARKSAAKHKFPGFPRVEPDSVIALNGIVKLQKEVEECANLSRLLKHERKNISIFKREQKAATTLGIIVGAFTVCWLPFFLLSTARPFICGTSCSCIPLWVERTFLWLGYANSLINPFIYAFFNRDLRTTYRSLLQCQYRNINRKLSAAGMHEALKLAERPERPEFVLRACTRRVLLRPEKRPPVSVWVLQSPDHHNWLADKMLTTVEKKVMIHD
- assay.name: Radioligand displacement binding assay, [3H]LSD, 5-HT7
- test.conditions: 1 μM
recorded.endpoint: inhibition at 1 µM (%)
One number for each entry, in %.

Some compounds with known inhibition at 1 µM results, for comparison:
compound	recorded.endpoint	unit.annotation	value
CC[C@@H](O)C(C[C@@H](C)N)(c1ccccc1)c1ccccc1 [(3R,6R)-DNML, (3R,6R)-6-amino-4,4-diphenylheptan-3-ol]	inhibition at 1 µM	%	12
CCC1=N[C@H](C)CC1(c1ccccc1)c1ccccc1 [(R)-EMDP]	inhibition at 1 µM	%	0
CC[C@@H](O)C(C[C@H](C)NC)(c1ccccc1)c1ccccc1 [(3R,6S)-NML]	inhibition at 1 µM	%	14
CC[C@H](O)C(C[C@H](C)NC)(c1ccccc1)c1ccccc1 [(3S,6S)-NML]	inhibition at 1 µM	%	12

Batch lookup, inhibition at 1 µM per entry.
1. CC[C@H](O)C(C[C@@H](C)NC)(c1ccccc1)c1ccccc1 [(3S,6R)-NML]
2. CC[C@H](O)C(C[C@@H](C)N)(c1ccccc1)c1ccccc1 [(3S,6R)-DNML, (3S,6R)-6-amino-4,4-diphenylheptan-3-ol]

11
8

Batch lookup, inhibition at 1 µM per entry.
1. CC[C@@H](O)C(C[C@H](C)N)(c1ccccc1)c1ccccc1 [(3R,6S)-DNML, (3R,6S)-6-amino-4,4-diphenylheptan-3-ol]
2. CC[C@@H](O)C(C[C@@H](C)NC)(c1ccccc1)c1ccccc1 [(3R,6R)-NML]
3. CCC(=O)C(C[C@H](C)N(C)C)(c1ccccc1)c1ccccc1 [(S)-methadone, reference compound]
4. CC[C@H](O)C(C[C@H](C)N)(c1ccccc1)c1ccccc1 [(3S,6S)-DNML, (3S,6S)-6-amino-4,4-diphenylheptan-3-ol]

[14, 4, 12, 5]

----------
Kindly supply the reported pIC50 (mean ± SEM) GluN1-GluN2D values for the records listed here.
- system.tested: GluN1-GluN2D NMDAR subtype (Homo sapiens, UniProt O15399+Q05586)
- Sequence (O15399 28-1336, other chains not shown): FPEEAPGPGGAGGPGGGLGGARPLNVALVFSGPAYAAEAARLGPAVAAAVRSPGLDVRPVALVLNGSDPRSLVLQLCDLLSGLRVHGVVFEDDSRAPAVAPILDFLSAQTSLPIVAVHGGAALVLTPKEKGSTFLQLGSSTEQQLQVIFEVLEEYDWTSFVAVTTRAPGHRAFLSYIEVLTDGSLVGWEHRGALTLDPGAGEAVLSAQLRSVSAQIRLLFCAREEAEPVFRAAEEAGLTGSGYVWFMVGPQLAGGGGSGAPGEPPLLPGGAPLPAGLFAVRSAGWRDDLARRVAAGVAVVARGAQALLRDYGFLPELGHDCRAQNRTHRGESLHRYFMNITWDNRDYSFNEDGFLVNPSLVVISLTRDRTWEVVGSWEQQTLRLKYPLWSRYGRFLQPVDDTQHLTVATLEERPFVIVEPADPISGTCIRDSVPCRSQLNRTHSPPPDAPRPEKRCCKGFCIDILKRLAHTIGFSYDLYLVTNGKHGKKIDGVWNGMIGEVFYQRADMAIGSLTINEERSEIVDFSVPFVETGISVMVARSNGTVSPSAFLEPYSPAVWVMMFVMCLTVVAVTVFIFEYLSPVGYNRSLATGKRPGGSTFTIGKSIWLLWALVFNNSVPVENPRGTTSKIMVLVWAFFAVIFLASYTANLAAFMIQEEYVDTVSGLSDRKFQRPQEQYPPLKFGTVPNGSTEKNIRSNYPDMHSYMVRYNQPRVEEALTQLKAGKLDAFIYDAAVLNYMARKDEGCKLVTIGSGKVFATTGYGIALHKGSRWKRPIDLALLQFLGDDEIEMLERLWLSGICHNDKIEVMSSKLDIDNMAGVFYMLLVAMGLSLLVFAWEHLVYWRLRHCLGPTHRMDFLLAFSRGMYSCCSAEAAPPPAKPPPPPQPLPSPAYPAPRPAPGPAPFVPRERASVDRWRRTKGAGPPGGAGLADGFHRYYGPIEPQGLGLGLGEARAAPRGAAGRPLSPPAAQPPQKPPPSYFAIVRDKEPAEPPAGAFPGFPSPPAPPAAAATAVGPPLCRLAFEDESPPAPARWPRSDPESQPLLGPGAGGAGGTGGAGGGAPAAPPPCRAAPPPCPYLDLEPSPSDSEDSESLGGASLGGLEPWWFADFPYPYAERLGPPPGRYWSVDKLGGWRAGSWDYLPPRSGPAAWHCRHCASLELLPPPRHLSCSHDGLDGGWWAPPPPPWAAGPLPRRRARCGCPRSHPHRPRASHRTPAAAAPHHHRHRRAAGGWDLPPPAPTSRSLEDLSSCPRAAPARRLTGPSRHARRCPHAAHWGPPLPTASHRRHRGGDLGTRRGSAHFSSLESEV
- assay.name: FLIPR/Ca2+ assay, NMDAR GluN1-GluN2D subtype in CHO cells
- Format: cell-based
- test.conditions: CHO cells, 10 μM L-glutamate and 10 μM glycine; n.d. = 50% of inhibition could not be reached at the highest concentration used
Numbers only.

Some compounds with known pIC50 (mean ± SEM) GluN1-GluN2D results, for comparison:
compound	system.tested	value
CC[C@@H](O)C(C[C@H](C)NC)(c1ccccc1)c1ccccc1 [(3R,6S)-NML]	GluN1-GluN2D NMDAR subtype (Homo sapiens, UniProt O15399+Q05586)	4.7
COc1ccc2c(c1)[C@]13CCCC[C@@H]1[C@H](C2)N(C)CC3 [dextromethorphan, reference compound]	GluN1-GluN2D NMDAR subtype (Homo sapiens, UniProt O15399+Q05586)	4.6

Batch lookup, pIC50 (mean ± SEM) GluN1-GluN2D per entry.
1. CC[C@H](O)C(C[C@@H](C)NC)(c1ccccc1)c1ccccc1 [(3S,6R)-NML]
2. CC[C@H](O)C(C[C@H](C)N(C)C)(c1ccccc1)c1ccccc1 [(3S,6S)-ML]
3. CC[C@H](O)C(C[C@H](C)NC)(c1ccccc1)c1ccccc1 [(3S,6S)-NML]

5.0
4.2
4.6

Batch lookup, pIC50 (mean ± SEM) GluN1-GluN2D per entry.
1. C[C@]12N[C@H](Cc3ccccc31)c1ccccc12 [(+)-MK-801, reference compound]
2. CC[C@H](O)C(C[C@H](C)N)(c1ccccc1)c1ccccc1 [(3S,6S)-DNML, (3S,6S)-6-amino-4,4-diphenylheptan-3-ol]
3. CC[C@@H](O)C(C[C@@H](C)NC)(c1ccccc1)c1ccccc1 [(3R,6R)-NML]

1. 6.1
2. 4.7
3. 5.0

----------
- system.tested: GluN1-GluN2A NMDAR subtype (Homo sapiens, UniProt Q05586+Q12879)
- Sequence (Q12879 23-1464, other chains not shown): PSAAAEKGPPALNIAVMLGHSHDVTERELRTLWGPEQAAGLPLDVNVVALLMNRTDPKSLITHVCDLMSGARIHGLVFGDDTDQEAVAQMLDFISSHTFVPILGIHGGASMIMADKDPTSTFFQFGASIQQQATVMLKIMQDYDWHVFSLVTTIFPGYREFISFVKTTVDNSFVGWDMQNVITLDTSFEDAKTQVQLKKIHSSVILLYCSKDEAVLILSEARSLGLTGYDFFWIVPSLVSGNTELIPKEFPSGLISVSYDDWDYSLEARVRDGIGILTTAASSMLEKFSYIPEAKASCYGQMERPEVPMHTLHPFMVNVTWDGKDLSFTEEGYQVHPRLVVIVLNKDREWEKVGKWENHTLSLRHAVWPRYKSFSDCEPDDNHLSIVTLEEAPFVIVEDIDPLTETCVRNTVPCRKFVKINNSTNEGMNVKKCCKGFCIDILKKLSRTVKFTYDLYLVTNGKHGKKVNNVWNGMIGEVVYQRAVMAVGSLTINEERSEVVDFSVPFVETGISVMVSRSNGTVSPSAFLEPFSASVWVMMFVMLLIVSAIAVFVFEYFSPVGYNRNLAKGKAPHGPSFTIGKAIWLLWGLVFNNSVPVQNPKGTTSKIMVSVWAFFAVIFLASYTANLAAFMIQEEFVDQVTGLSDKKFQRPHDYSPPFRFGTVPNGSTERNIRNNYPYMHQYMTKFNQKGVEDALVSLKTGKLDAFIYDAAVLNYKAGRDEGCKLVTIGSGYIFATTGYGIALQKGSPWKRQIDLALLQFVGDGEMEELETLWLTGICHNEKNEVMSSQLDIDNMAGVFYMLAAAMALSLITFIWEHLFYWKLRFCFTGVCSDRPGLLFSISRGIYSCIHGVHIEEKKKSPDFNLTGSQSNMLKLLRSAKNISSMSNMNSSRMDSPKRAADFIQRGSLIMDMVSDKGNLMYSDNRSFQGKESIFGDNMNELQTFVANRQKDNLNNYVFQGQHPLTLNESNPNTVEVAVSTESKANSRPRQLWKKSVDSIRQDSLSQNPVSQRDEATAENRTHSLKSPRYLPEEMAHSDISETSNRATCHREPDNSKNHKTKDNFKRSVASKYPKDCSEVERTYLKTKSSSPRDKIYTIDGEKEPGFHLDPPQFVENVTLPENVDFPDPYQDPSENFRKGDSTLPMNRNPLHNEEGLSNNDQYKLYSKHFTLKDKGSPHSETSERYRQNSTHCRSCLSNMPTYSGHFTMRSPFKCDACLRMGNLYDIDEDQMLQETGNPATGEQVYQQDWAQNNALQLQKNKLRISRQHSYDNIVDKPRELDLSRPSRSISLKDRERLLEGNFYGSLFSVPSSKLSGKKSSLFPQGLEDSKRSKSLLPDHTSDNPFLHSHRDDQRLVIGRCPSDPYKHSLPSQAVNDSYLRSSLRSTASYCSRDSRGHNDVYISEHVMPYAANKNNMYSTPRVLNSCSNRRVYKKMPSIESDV
- assay.name: FLIPR/Ca2+ assay, NMDAR GluN1-GluN2A subtype in CHO cells
- Type: cell-based
pIC50: −log10 of the molar value.
recorded.endpoint: pIC50

Find the measured pIC50: item CCC1=[N+](C)[C@@H](C)CC1(c1ccccc1)c1ccccc1 [(S)-EDDP] , target or system GluN1-GluN2A NMDAR subtype (Homo sapiens, UniProt Q05586+Q12879).
< 4.00

----------
Kindly supply the reported inhibition at 3 µM values for the records listed here.
- system.tested: Serotonin 5-HT1A (Homo sapiens, UniProt P08908)
- Construct: host or cells: CHO-K1
- Sequence (P08908 1-422): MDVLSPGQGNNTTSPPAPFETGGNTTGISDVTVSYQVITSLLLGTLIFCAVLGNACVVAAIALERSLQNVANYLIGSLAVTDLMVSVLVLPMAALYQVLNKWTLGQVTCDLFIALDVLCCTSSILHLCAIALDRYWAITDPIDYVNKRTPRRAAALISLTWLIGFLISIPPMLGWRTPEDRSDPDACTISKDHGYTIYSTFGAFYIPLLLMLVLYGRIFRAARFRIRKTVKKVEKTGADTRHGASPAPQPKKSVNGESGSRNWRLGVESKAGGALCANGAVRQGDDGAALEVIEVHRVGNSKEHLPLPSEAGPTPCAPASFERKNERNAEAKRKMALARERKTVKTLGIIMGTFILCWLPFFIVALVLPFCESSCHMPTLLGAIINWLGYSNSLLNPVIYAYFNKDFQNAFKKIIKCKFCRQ
- assay.name: Radioligand displacement binding assay, [3H]8-OH-DPAT, 5-HT1A
- test.conditions: 3 μM
Give bare numbers, in %.

Some compounds with known inhibition at 3 µM results, for comparison:
compound	inhibition at 3 µM (%)
CC[C@H](O)C(C[C@H](C)NC)(c1ccccc1)c1ccccc1	1
CC[C@H](O)C(C[C@H](C)N)(c1ccccc1)c1ccccc1	15
CC[C@@H](O)C(C[C@@H](C)NC)(c1ccccc1)c1ccccc1	-10
CCC(=O)C(C[C@H](C)N(C)C)(c1ccccc1)c1ccccc1 [(S)-methadone, reference compound]	2
CC[C@@H](O)C(C[C@H](C)N)(c1ccccc1)c1ccccc1	-1

Batch lookup, inhibition at 3 µM per entry.
1. CC[C@@H](O)C(C[C@H](C)NC)(c1ccccc1)c1ccccc1
2. CC[C@H](O)C(C[C@@H](C)N)(c1ccccc1)c1ccccc1
3. CC[C@@H](O)C(C[C@@H](C)N)(c1ccccc1)c1ccccc1

1: 11; 2: -1; 3: 4

Batch lookup, inhibition at 3 µM per entry.
1. CCC1=N[C@H](C)CC1(c1ccccc1)c1ccccc1 [(R)-EMDP]
2. CC[C@H](O)C(C[C@@H](C)NC)(c1ccccc1)c1ccccc1

1: 7; 2: -4

----------
- system.tested: GluN1-GluN2D NMDAR subtype (Homo sapiens, UniProt O15399+Q05586)
- assay.name: FLIPR/Ca2+ assay, NMDAR GluN1-GluN2D subtype in CHO cells
- Type: cell-based
- test.conditions: CHO cells, 10 μM L-glutamate and 10 μM glycine; n.d. = 50% of inhibition could not be reached at the highest concentration used
recorded.endpoint: pIC50 (mean ± SEM) GluN1-GluN2D
One number for each entry.

compound	pIC50 (mean ± SEM) GluN1-GluN2D
CC[C@@H](O)C(C[C@@H](C)N)(c1ccccc1)c1ccccc1	4.7
CC[C@@H](O)C(C[C@H](C)N)(c1ccccc1)c1ccccc1	4.9
CNC1(c2ccccc2Cl)CCCCC1=O (racemic) [(±)-ketamine, reference compound]	5.0

Batch lookup, pIC50 (mean ± SEM) GluN1-GluN2D per entry.
1. CCC1=[N+](C)[C@H](C)CC1(c1ccccc1)c1ccccc1.[Cl-] [(R)-EDDP]
2. CC[C@H](O)C(C[C@@H](C)N(C)C)(c1ccccc1)c1ccccc1
3. CC[C@@H](O)C(C[C@@H](C)N(C)C)(c1ccccc1)c1ccccc1
4. CC[C@H](O)C(C[C@@H](C)N)(c1ccccc1)c1ccccc1

[4.3, 4.2, 4.3, 4.7]

----------
Kindly supply the reported pIC50 (mean ± SEM) GluN1-GluN2A values for the records listed here.
- system.tested: GluN1-GluN2A NMDAR subtype (Homo sapiens, UniProt Q05586+Q12879)
- assay.name: FLIPR/Ca2+ assay, NMDAR GluN1-GluN2A subtype in CHO cells
- Type: cell-based
- test.conditions: CHO cells, 10 μM L-glutamate and 10 μM glycine; n.d. = 50% of inhibition could not be reached at the highest concentration used
Give bare numbers.

molecule	system.tested	pIC50 (mean ± SEM) GluN1-GluN2A
CNC1(c2ccccc2Cl)CCCCC1=O (racemic) [(±)-ketamine, reference compound]	GluN1-GluN2A NMDAR subtype (Homo sapiens, UniProt Q05586+Q12879)	4.6
CC[C@@H](O)C(C[C@@H](C)N(C)C)(c1ccccc1)c1ccccc1 [(3R,6R)-ML]	GluN1-GluN2A NMDAR subtype (Homo sapiens, UniProt Q05586+Q12879)	4.5
CC[C@@H](O)C(C[C@H](C)N)(c1ccccc1)c1ccccc1 [(3R,6S)-DNML, (3R,6S)-6-amino-4,4-diphenylheptan-3-ol]	GluN1-GluN2A NMDAR subtype (Homo sapiens, UniProt Q05586+Q12879)	4.6
CC[C@@H](O)C(C[C@@H](C)NC)(c1ccccc1)c1ccccc1 [(3R,6R)-NML]	GluN1-GluN2A NMDAR subtype (Homo sapiens, UniProt Q05586+Q12879)	5.0
CC[C@H](O)C(C[C@@H](C)N)(c1ccccc1)c1ccccc1 [(3S,6R)-DNML, (3S,6R)-6-amino-4,4-diphenylheptan-3-ol]	GluN1-GluN2A NMDAR subtype (Homo sapiens, UniProt Q05586+Q12879)	4.5

Batch lookup, pIC50 (mean ± SEM) GluN1-GluN2A per entry.
1. CC[C@@H](O)C(C[C@H](C)NC)(c1ccccc1)c1ccccc1 [(3R,6S)-NML]
2. CC[C@H](O)C(C[C@H](C)N(C)C)(c1ccccc1)c1ccccc1 [(3S,6S)-ML]
3. CC[C@H](O)C(C[C@H](C)NC)(c1ccccc1)c1ccccc1 [(3S,6S)-NML]
4. CCC1=N[C@H](C)CC1(c1ccccc1)c1ccccc1 [(R)-EMDP]

[4.4, 4.1, 4.6, 4.8]

Batch lookup, pIC50 (mean ± SEM) GluN1-GluN2A per entry.
1. COc1ccc2c(c1)[C@]13CCCC[C@@H]1[C@H](C2)N(C)CC3 [dextromethorphan, reference compound]
2. CC[C@@H](O)C(C[C@@H](C)N)(c1ccccc1)c1ccccc1 [(3R,6R)-DNML, (3R,6R)-6-amino-4,4-diphenylheptan-3-ol]
3. CC[C@H](O)C(C[C@@H](C)NC)(c1ccccc1)c1ccccc1 [(3S,6R)-NML]
4. CC[C@H](O)C(C[C@H](C)N)(c1ccccc1)c1ccccc1 [(3S,6S)-DNML, (3S,6S)-6-amino-4,4-diphenylheptan-3-ol]
5. CC[C@H](O)C(C[C@@H](C)N(C)C)(c1ccccc1)c1ccccc1 [(3S,6R)-ML]
6. CC[C@@H](O)C(C[C@H](C)N(C)C)(c1ccccc1)c1ccccc1 [(3R,6S)-ML]

1. 4.3
2. 4.8
3. 4.8
4. 4.9
5. 4.5
6. 4.0
